meta.source: paper PMC4116151

Substrate: CC(C)(COP(=O)(O)OP(=O)(O)OC[C@H]1O[C@@H](n2cnc3c(N)ncnc32)[C@H](O)[C@@H]1OP(=O)(O)O)[C@@H](O)C(=O)NCCC(=O)NCCSC(=O)c1ccccc1
Assay: purified protein
Settings: pH 7.5, 25 °C, 50 mM K+HEPES, 1 mM DTNB
Property: Km
Include the unit after the number when you answer.

Known Km results, listed for orientation:
- Protein: "YdiI (Escherichia coli K-12; S109A) (protein) MIWKRKITLEALNAMGEGNMVGFLDIRFEHIGDDTLEATMPVDSRTKQPFGLLHGGASVVLAESIGSVAGYLCTEGEQKVVGLEINANHVRSAREGRVRGVCKPLHLGARHQVWQIEIFDEKGRLCCSSRLTTAIL"
  Km: "14.2 ± 0.2 µM"
- Protein: "YdiI (Escherichia coli K-12; S67A) (protein) MIWKRKITLEALNAMGEGNMVGFLDIRFEHIGDDTLEATMPVDSRTKQPFGLLHGGASVVLAESIGAVAGYLCTEGEQKVVGLEINANHVRSAREGRVRGVCKPLHLGSRHQVWQIEIFDEKGRLCCSSRLTTAIL"
  Km: "12.6 ± 0.2 µM"
- Protein: "YdiI (Escherichia coli K-12; H54A) (protein) MIWKRKITLEALNAMGEGNMVGFLDIRFEHIGDDTLEATMPVDSRTKQPFGLLAGGASVVLAESIGSVAGYLCTEGEQKVVGLEINANHVRSAREGRVRGVCKPLHLGSRHQVWQIEIFDEKGRLCCSSRLTTAIL"
  Km: "100 ± 8 µM"
- Protein: "YbdB (Escherichia coli K-12) (protein) MIWKRHLTLDELNATSDNTMVAHLGIVYTRLGDDVLEAEMPVDTRTHQPFGLLHGGASAALAETLGSMAGFMMTRDGQCVVGTELNATHHRPVSEGKVRGVCQPLHLGRQNQSWEIVVFDEQGRRCCTCRLGTAVLG"
  Km: "12 ± 1 µM"

Now examine the next entry.
Fill in the blank: the reported Km of YdiI (Escherichia coli K-12; E63D) (protein) MIWKRKITLEALNAMGEGNMVGFLDIRFEHIGDDTLEATMPVDSRTKQPFGLLHGGASVVLADSIGSVAGYLCTEGEQKVVGLEINANHVRSAREGRVRGVCKPLHLGSRHQVWQIEIFDEKGRLCCSSRLTTAIL is ____.
120 ± 10 µM
